target: SARS-CoV-2 (WIV02 isolate) prefusion stabilized spike trimer protein (UniProt P0DTC2 14-1213); assay: ELISA
valueType: IC50 (nM)
Return type: number; implicit unit nM.

# binder, IC50 (nM)
rows = [
    ("8-L17-A (antibody, V domains shown) VH: EVQLVESGGGLVQPKGSLKLSCAASGFTFNTYAMHWVRQAPGKGLEWVARIRSKSSNYARYYADSVKDRFTISRDDSQSMLYLQMNNLKTEDTAMYYCVRDHDYYGSSYWFAYWGQGTLVTVSA VL: DVVMTQTPLSLPVSLGDQASISCRSSQSLVHNNGNTYLHWYLQKPGQSPKLLIYKVSNRFSGVPDRFSGSGSGTDFTLKISRVEAEDLGVYFCSQSTHVPWTFGGGTKLEIK", 60.8),
]

Please look at the following binder next.
Kindly note the recorded IC50 for 3-P7-A (antibody, V domains shown) VH: QAYLQQSGAELVRPGASVKMSCKASGYTFTSYSMHWVKQTPRQGLEWIGAIYPGNDDTSYNQKFKGKATLTVDKSSSTAYMQLSSLTSEDSAVYFCTRDYTNYPFDYWGQGTTLTVSS VL: DIVLTQSPASLPVSLGQRATISCRASKSVSTSGYSYMHWYQQRPGQPPKLLIYLASNLESGVPARFSASGSGTDFTLNIHPVEEEDAATYYCQHSRELPPTFGGGTKVEIK , which is 8.86
